The measurements presented in this section are drawn from patent US11896573B2.

methodNotes: Multiple ascending dose study, plasma pharmacokinetics of Compound (1) and GHB
Format: in vivo, human
testConditions: human, plasma, oral, 4.5 g/day, Cohort 9 (4.5 g/day in a single dose), Dosing Day 10; read-out: Compound (1) plasma Cmax, Mean
measuredParameter: Cmax (ng/mL)

[[record]]
compoundstructurestring = "CC(C)[C@H](N)C(=O)OCCCC(=O)O"
measuredparameter = "Cmax"
units = "ng/mL"
endpointvalue = 14800


---

methodNotes: Multiple ascending dose study, plasma pharmacokinetics of Compound (1) and GHB
Type: in vivo, human
testConditions: human, plasma, oral, 4.5 g/day, Cohort 9 (4.5 g/day in a single dose), Dosing Day 10; read-out: Compound (1) plasma T1/2, Mean (converted)
measuredParameter: half-life (min)

[[record]]
molecule = "CC(C)[C@H](N)C(=O)OCCCC(=O)O [Compound (1), 4-((L-valyl)oxy)butanoic acid]"
endpointvalue = 33.6

